- Tested on: HL-60(TB) leukemia
- protocolText: NCI-60 one-dose screen, 48 h (100 = growth as untreated, 0 = no growth, -100 = all killed)
- studyConditions: 10 µM unless noted
This is part of a sample that, as a whole, favours compounds with a hit. Of some 83,000 tested, about 20% had one in any assay.
assayReadout: growth (%)
Answers are plain numbers, in %.

// below: answered compounds
[
  {
    "compound": "Clc1nc(Cl)c2ncn(C/C=C\\Cn3cnc4c(Cl)nc(Cl)nc43)c2n1",
    "system": "HL-60(TB) leukemia",
    "u": "%",
    "reportedMeasurement": -70.2
  },
  {
    "compound": "O=[N+]([O-])c1ccc(-c2nc(Cl)c3c(n2)CCCC3)o1",
    "system": "HL-60(TB) leukemia",
    "u": "%",
    "reportedMeasurement": 93.8
  },
  {
    "compound": "O=C(N/N=C(\\CS(=O)(=O)c1ccccc1)c1cc2cc(Br)ccc2oc1=O)c1ccccc1",
    "system": "HL-60(TB) leukemia",
    "u": "%",
    "reportedMeasurement": 119
  },
  {
    "compound": "C#CC[C@@H]1C[C@]2(C)[C@H]3CC[C@@H]4[C@H]5C(C(=C)C)CC[C@]5(C(=O)NCCCCN)CC[C@@]4(C)[C@]3(C)CC[C@H]2C(C)(C)[C@H]1OC(C)=O (stereo not given in full)",
    "system": "HL-60(TB) leukemia",
    "u": "%",
    "reportedMeasurement": -38.3
  },
  {
    "compound": "C[n+]1cccc(NC(=O)c2ccc3ccc4ccc(C(=O)Nc5ccc[n+](C)c5)nc4c3n2)c1",
    "system": "HL-60(TB) leukemia",
    "u": "%",
    "reportedMeasurement": 61.4
  },
  {
    "compound": "CCn1cc(C(=O)NNC(=S)Nc2ccc(C)cc2)c(=O)c2ccc(C)nc21",
    "system": "HL-60(TB) leukemia",
    "u": "%",
    "reportedMeasurement": 94.5
  },
  {
    "compound": "CC[C@H](Nc1nc(N)nc(C)c1C#N)c1nc2cccc(NCc3ccc(C(=O)NO)cc3)c2c(=O)n1-c1ccccc1",
    "system": "HL-60(TB) leukemia",
    "u": "%",
    "reportedMeasurement": 2.45
  },
  {
    "compound": "CCCCCc1c(C)[nH]c(/C=C2\\N=C(c3ccc[nH]3)C=C2CC)c1C",
    "system": "HL-60(TB) leukemia",
    "u": "%",
    "reportedMeasurement": -62
  },
  {
    "compound": "CC(C)OC(=O)c1ccc([N+](=O)[O-])cc1",
    "system": "HL-60(TB) leukemia",
    "u": "%",
    "reportedMeasurement": 121
  },
  {
    "compound": "CC(=O)Nc1ccc(NC(C)=O)c2c1C(=O)c1ccccc1C2=O",
    "system": "HL-60(TB) leukemia",
    "u": "%",
    "reportedMeasurement": 154
  }
]

State recorded growth for all listed compounds.
1. C#CCOc1cccc(Nc2ncnc3c(NC(=O)CCl)cccc23)c1
2. c1ccc(C(=NNc2nc3ccccc3o2)c2ccccn2)nc1
3. COc1ccc(Nc2ncc(Br)c(NCCCNC(=O)C3CCCC3)n2)cc1
4. O=C1c2cc(Br)ccc2Oc2cc([N+](=O)[O-])ccc2N1c1ccc(I)cc1F
5. NC(=O)NCCCC(N)C(=O)O (stereo not given)

1: -59.1; 2: -11.8; 3: 17; 4: 81.2; 5: 105

Each compound below has a recorded value; state its growth.
1. Cc1nc2ccc(CN(C)c3ccc(C(=O)N[C@@H](CCC(=O)O)C(=O)O)s3)cc2c(=O)[nH]1
2. Nc1nc(N)c2c(n1)NC(c1cccc(Nc3ccnc4cc(C(F)(F)F)ccc34)c1)CC(c1ccc(Cl)cc1)=N2 (stereo not given)
3. Nc1ccc(C2=NN(C(=O)c3cc(-c4ccc(Cl)cc4)nc4ccccc34)C(c3ccc(Cl)cc3)C2)cc1 (stereo not given)
4. Cc1ccc(-c2onc3c(=O)[nH]nc(-c4ccccc4)c23)cc1
5. O=C(CCl)NC1c2ccccc2Oc2ccccc21

[27.9, 34.3, -4.63, -8.12, 78.4]

* * *

Would you mind telling me the reported growth of each entry?
- Tested on: HL-60(TB) leukemia
- protocolText: NCI-60 one-dose screen, 48 h (100 = growth as untreated, 0 = no growth, -100 = all killed)
- studyConditions: 10 µM unless noted
About 83,000 compounds went through this panel and 20% of them were active in at least one assay; those are over-represented in the sample as a whole.
Give bare numbers, in %.

[
  {
    "smilesText": "O=C(CCl)N1CCN(C/C=C/c2ccccc2)CC1",
    "u": "%",
    "reportedMeasurement": 102
  },
  {
    "smilesText": "Cc1ccc(C(=O)Nc2ccc(CN3CCN(C)CC3)c(C(F)(F)F)c2)cc1C#Cc1cnc2cccnn12",
    "u": "%",
    "reportedMeasurement": -71.9
  },
  {
    "smilesText": "O=C1C(=O)c2cccnc2-c2ncccc21",
    "u": "%",
    "reportedMeasurement": -21
  },
  {
    "smilesText": "C=C1C(=O)O[C@H]2[C@H]1CC/C(COC(=O)C(=O)c1c[nH]c3ccc(OC)cc13)=C\\CC[C@@]1(C)O[C@@H]21",
    "u": "%",
    "reportedMeasurement": -53.2
  }
]

Let's switch to this molecule now.
Which growth is reported for this molecule? CCC(=O)Oc1c(C)cc(O)c2ccccc12 68.8

* * *

- System: HL-60(TB) leukemia
- protocolText: NCI-60 one-dose screen, 48 h
- studyConditions: 10 µM unless noted
This is part of a sample that, as a whole, favours compounds with a hit. Of some 83,000 tested, about 20% had one in any assay. Active and inactive are the calls of the source. The calls were made as follows: active = growth percent below 10; inactive = the rest.
Could you please pick one outcome from this set? Yes for active, No for inactive

[
  {
    "molecule": "Brc1ccsc1Br",
    "system": "HL-60(TB) leukemia",
    "groupLabel": "No"
  },
  {
    "molecule": "C=C(C)[C@@H]1C[C@@H]2Cc3cc(Cl)ccc3N1O2",
    "system": "HL-60(TB) leukemia",
    "groupLabel": "Yes"
  },
  {
    "molecule": "COc1cc(N)ccc1Nc1c2ccccc2nc2ccccc12",
    "system": "HL-60(TB) leukemia",
    "groupLabel": "No"
  },
  {
    "molecule": "Cn1c(COC(=O)NCCN2CCOCC2)nc2c(N3CCOCC3)nc(-c3ccccc3)nc21",
    "system": "HL-60(TB) leukemia",
    "groupLabel": "Yes"
  },
  {
    "molecule": "Cc1ccc(S(=O)(=O)n2cc(C(=O)C(=O)N3CCCCC3)c3ccccc32)cc1",
    "system": "HL-60(TB) leukemia",
    "groupLabel": "No"
  }
]

Per the assay record, what outcome was assigned to CN(C)CCN(Cc1ccccc1)c1ccccc1 ? No

Hi team, can someone confirm the assay call for CCNNC(=O)[C@@H]1[C@H](c2cc(OC)c(OC)c(OC)c2)c2cc3c(cc2[C@H](O)[C@H]1CO)OCO3 ? Yes

Per the records of this test, what outcome belongs to O=C(/C=C/c1cccc([N+](=O)[O-])c1)c1ccc(Nc2nc(Nc3ccc(F)cc3)nc(Nc3ccc(Cl)cc3)n2)cc1 ? Yes

Please state the recorded outcome for this molecule: CCOC(=O)c1cc2c(n1Cc1cc(OC)c(OC)c(OC)c1)-c1nc(N)sc1CCC2 No

Dear all, I need the recorded test outcome for Cc1ccc2nc(-c3cc4c([nH]c5ccccc54)c(-c4ccc(F)c(F)c4)n3)[nH]c2c1 , thank you. No

Hi, sorry to bother you, what did the test record for CCN(CC)CCOC(=O)Nc1c(C(C)C)cccc1C(C)C ? No

Hello, I am checking results. What call was entered for COc1cccc(-c2nn(-c3ccccc3)cc2-c2ccnc(NCCNC(=O)Nc3ccccc3)c2)c1 ? No

So what was the verdict on O=C(C[N+](=O)[O-])c1ccc(Cl)cc1 in this test? No

Outcome logged for CCN(CC)CCCNc1cc(OC)cc2cccnc12 in this assay: No

Please indicate how the test categorized O=c1[nH]nc(-c2ccc(Cl)cc2)cc1Cc1cccc([N+](=O)[O-])c1 . No

Kindly provide the recorded test outcome for the following molecule: O=C(Nc1ccc(C23CC4CC(CC(c5ccccc5)(C4)C2)C3)cc1)c1cccs1 No

In this assay, the call recorded for O=C1C(=O)c2c(nc3ccc(Cl)cn23)-c2ccccc21 was what? Yes

Outcome logged for COc1cc(-c2ccc(-c3ccc(C(=N)N)nc3)s2)cc(OC)c1OC in this assay: Yes

Kindly provide the recorded test outcome for the following molecule: Cc1cccc(Cc2cnc(NC(=O)CCCOc3ccc(Cl)cc3)s2)c1 Yes

Could you please tell me the result logged for C#CCOc1cccc(Nc2ncnc3cc(NC(=O)CCl)ccc23)c1 in this assay? Yes

So what was the verdict on CN(C)CCCN1c2ccccc2CCc2ccccc21 in this test? No
